- System: MCH receptors
- assay_text: MCH receptor activity class (method not given)
Consider the following molecules; for each one, report its class.
Number, no unit, nothing else.

The recorded class with MCH receptors for "COc1cccc(C(=O)N[C@H]2CC[C@@H](Nc3nc(C)cc(N(C)C)n3)CC2)c1" was 1

Tested on MCH receptors, the item "Cc1cc(N[C@H]2CC[C@@H](NC(=O)Nc3cccc(Oc4ccccc4)c3)CC2)nc2ccccc12" showed class equal to 2

Fill in: MCH receptors class for "Cc1cc(N[C@H]2CC[C@@H](NC(=O)c3ccc(F)cc3)CC2)nc2ccccc12" = 1

Summary: "Cc1cc(N[C@H]2CC[C@@H](NC(=O)c3cccc(C#N)c3)CC2)nc2ccccc12" , MCH receptors, class = 1

Summary line: "Cc1cc(N(C)C)nc(N[C@H]2CC[C@@H](C(=O)NCc3ccc(Br)cc3F)CC2)n1" , MCH receptors, reported class = 1

# lookup: "Cc1ccc(C(=O)N[C@H]2CC[C@@H](Nc3cc(C)c4ccccc4n3)CC2)cc1" on MCH receptors, class = 1

// class (MCH receptors) for "Cc1cc(N(C)C)nc(N[C@H]2CC[C@@H](C(=O)NCc3ccccc3OC(F)(F)F)CC2)n1" = 1

Query "COc1cc(CNC(=O)[C@H]2CC[C@@H](Nc3nc(C)cc(N(C)C)n3)CC2)cc(OC)c1" on MCH receptors; class returned: 1

Recorded class for "Cc1cc(N(C)C)nc(N[C@H]2CC[C@@H](C(=O)NCc3cc(F)ccc3F)CC2)n1" on MCH receptors was 1

Item "Cc1cc(N(C)C)nc(N[C@H]2CC[C@@H](NC(=O)c3ccc(F)c(F)c3)CC2)n1" ; assay system MCH receptors; class reported as 1

Field class (system: MCH receptors) for entry "Cc1cc(N[C@H]2CC[C@@H](NC(=O)Nc3ccc(OCc4ccccc4)cc3)CC2)nc2ccccc12" = 2

Known value: MCH receptors class of the molecule "Cc1cccc(C(=O)N[C@H]2CC[C@@H](Nc3cc(C)c4ccccc4n3)CC2)c1" equals 1

Record "Cc1cc(N(C)C)nc(N[C@H]2CC[C@@H](NC(=O)c3ccc(F)cc3)CC2)n1" / MCH receptors, class recorded as 1

###

Exercise: for every item that follows, state its recorded IC50.
- system_name: MCH receptor (Homo sapiens)
- assay_text: High throughput functional screening FLIPR/FDSS6000 (intracellular Ca2+ evoked by MCH)
- Format: cell-based
- assay_setup: FLIPR/FDSS, antagonist activity vs 50 nM MCH; class by percent of control at 10^−7 M or IC50; table after the classification; read-out: class
Structures can show the parent of a compound that is named as a salt.

IC50 reported for this compound CCc1cc(N(C)C)nc(N[C@H]2CC[C@@H](NC(=O)c3ccc(F)c(F)c3)CC2)n1 [Example 3231, hydrochloride] : 50 to 200 nM

Short answer for CN(C)c1ccnc(N[C@H]2CC[C@@H](NC(=O)Nc3cccc(Cl)c3Cl)CC2)n1 [Example 3218, hydrochloride] : IC50 was > 200 nM

# IC50 (compound: CN(C)c1cc(N[C@H]2CC[C@@H](CNC(=O)c3cccnc3Oc3ccccc3)CC2)nc2ccccc12 [Example 3118, hydrochloride] ) is > 200 nM

IC50 reported for this compound Cc1cc(N[C@H]2CC[C@@H](NC(=O)c3cccc(F)c3F)CC2)nc2ccccc12 [Example 3162, hydrochloride] : 50 to 200 nM

Documented IC50 of O=C(COc1cccc(Cl)c1)N[C@H]1CC[C@@H](Nc2ccc3ccccc3n2)CC1 [Example 3063, hydrochloride] : < 50 nM

The compound listed as CN(C)c1cc(N[C@H]2CC[C@@H](CNCc3ccc(Br)cc3OC(F)(F)F)CC2)nc2ccccc12 [Example 7, dihydrochloride] shows IC50 equal to < 50 nM

Per the record, O=C(N[C@H]1CC[C@@H](Nc2ccc3ccccc3n2)CC1)c1ccc2nonc2c1 [Example 3041, hydrochloride] has IC50 of < 50 nM
